- targetUnderTest: Hepatocyte Growth Factor Activator (HGFA) serine protease domain, N-terminal His-tag, recombinant (Homo sapiens (Human)) (UniProt Q04756)
- assayInfo: fluorogenic inhibition assay
Starred links: 1 amine or outer side, 2 acyl side, 3 side chain; linkers in the order of their positions; H or OH if unused. Positions of bridges follow the written chain, without caps; N, C: chain ends. Non-standard residues stand in square brackets, D forms with d. *: point of attachment. Kbt‑6‑CONH = ketobenzothiazole-6-CONH (amide link to Val), O=C(c1ccc2nc([*:1])sc2c1)[*:2]; kbt = C-terminal ketobenzothiazole, c1ccc2sc(*)nc2c1; Kbt = ketobenzothiazole, c1ccc2sc(*)nc2c1; kt = C-terminal ketothiazole, c1csc(*)n1; Fmoc = O=C(OCC1c2ccccc2-c2ccccc21)*
Recorded log10(Ki) by entry
Kindly note that the scale is log10 and the underlying Ki is in nM.

Recorded results for 3 binders are shown here.
H-KQDRR-kt (lactam 1-3; also: 3:1 D/L diastereomers at the alpha keto carbon) [H-cyclo(KQD)RR-kt]; 3.77
Ac-WQLR-kt (SMILES CC(=O)N[C@@H](Cc1c[nH]c2ccccc12)C(=O)N[C@@H](CCC(N)=O)C(=O)N[C@@H](CC(C)C)C(=O)N[C@@H](CCCNC(=N)N)C(=O)c1nccs1) [Ac-WQLR(SEQ ID NO: 3)-kt]; 1.81
H-[dW]-Phe-Arg-kbt [H-dWFR-kbt]; 3.35

Input Ac-SWLR-kt (SMILES CC(=O)N[C@@H](CO)C(=O)N[C@@H](Cc1c[nH]c2ccccc12)C(=O)N[C@@H](CC(C)C)C(=O)N[C@@H](CCCNC(=N)N)C(=O)c1nccs1) [Ac-SWLR(SEQ ID NO: 17)-kt] . Output log10(Ki): 1.80

Value of measured log10(Ki) for the entry Ac-RQLR-kt (SMILES CC(=O)N[C@@H](CCCNC(=N)N)C(=O)N[C@@H](CCC(N)=O)C(=O)N[C@@H](CC(C)C)C(=O)N[C@@H](CCCNC(=N)N)C(=O)c1nccs1) [Ac-RQLR(SEQ ID NO: 6)-kt] : 1.78

Reported log10(Ki) ( Ac-KQLR-{Kbt‑6‑CONH-Val-NH2} [Ac-KQLR(SEQ ID NO: 1)-Kbt-Val-NH2] ) = 1.08

The recorded log10(Ki) for H-WRLR-kbt (SMILES CC(C)C[C@H](NC(=O)[C@H](CCCNC(=N)N)NC(=O)[C@@H](N)Cc1c[nH]c2ccccc12)C(=O)N[C@@H](CCCNC(=N)N)C(=O)c1nc2ccccc2s1) [H-WRLR(SEQ ID NO: 9)-Kbt] is 0.94

Query Ac-WKLR-kt (SMILES CC(=O)N[C@@H](Cc1c[nH]c2ccccc12)C(=O)N[C@@H](CCCCN)C(=O)N[C@@H](CC(C)C)C(=O)N[C@@H](CCCNC(=N)N)C(=O)c1nccs1) [Ac-WKLR(SEQ ID NO: 12)-kt] yields log10(Ki) of 1.75

Reported log10(Ki) for Ac-KRLR-{Kbt-Benzyl‑3‑COOMe} [Ac-KRLR(SEQ ID NO: 8)-kbt-Benzyl-3-COOMe] was 0.89

For H-Arg-Leu-Arg-{kbt-Val-NH2} [H-RLR-kbt-Val-NH2] the binder record lists log10(Ki) as 1.10

get_value(item= Fmoc-Arg-Arg-kbt [Fmoc-RR-kbt] , readout=log10(Ki)) returns 3.94
